Target: T1, ZO-1 PDZ2 R219A (human, UniProt Q07157 186-264, R219A)
T1 sequence: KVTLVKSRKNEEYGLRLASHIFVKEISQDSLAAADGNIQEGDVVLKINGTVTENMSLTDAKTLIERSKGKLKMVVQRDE
Experiment: ITC
pKd: −log10 of the molar value.
metric: pKd

>>> df
                                     binder  endpoint_result
0  PSSRASSRASSRPRPDDLEI [Connexin 43 (Cx43) C-terminal peptide]             4.96
